Please respond with reported pEC50 for every item in the list.
Biological target: human GLP1-R (Homo sapiens, UniProt P43220)
Sequence (P43220 24-463): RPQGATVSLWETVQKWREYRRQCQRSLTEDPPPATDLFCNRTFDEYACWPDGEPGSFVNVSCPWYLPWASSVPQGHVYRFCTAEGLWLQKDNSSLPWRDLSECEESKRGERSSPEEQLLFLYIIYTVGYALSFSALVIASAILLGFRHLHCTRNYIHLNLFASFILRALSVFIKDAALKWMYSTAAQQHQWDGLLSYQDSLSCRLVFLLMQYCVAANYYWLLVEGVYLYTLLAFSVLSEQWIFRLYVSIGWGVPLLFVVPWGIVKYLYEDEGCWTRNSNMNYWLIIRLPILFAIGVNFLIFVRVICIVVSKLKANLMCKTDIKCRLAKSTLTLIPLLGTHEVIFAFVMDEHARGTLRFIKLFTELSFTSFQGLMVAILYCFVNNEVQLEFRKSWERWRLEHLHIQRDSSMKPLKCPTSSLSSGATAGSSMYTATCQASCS
Test: GLP1-R internalization assay in HEK293 cells
Type: cell-based
Conditions: HEK293 cells expressing SNAP-GLP-1R; read-out: GLP1R Internalization EC50
Starred links: 1 amine or outer side, 2 acyl side, 3 side chain; linkers in the order of their positions; H or OH if unused. Non-standard residues stand in square brackets, D forms with d. Groups on a side chain read outwards from the residue. *: point of attachment. C20 diacid = O=C(O)CCCCCCCCCCCCCCCCCCC(=O)*; C18 diacid = O=C(O)CCCCCCCCCCCCCCCCC(=O)*; αMePhe(2-F) = C[C@](N)(Cc1ccccc1F)C(=O)O; γGlu = O=C(O)[C@H](CCC(=O)[*:2])N[*:1]; αMe4Pal = C[C@](N)(Cc1ccncc1)C(=O)O; αMeY = C[C@](N)(Cc1ccc(O)cc1)C(=O)O; 4Pal = N[C@@H](Cc1ccncc1)C(=O)O; αMeL = CC(C)C[C@](C)(N)C(=O)O; αMeS = C[C@](N)(CO)C(=O)O; Orn = NCCC[C@H](N)C(=O)O; AEEA = NCCOCCOCC(=O)O; Aib = CC(C)(N)C(=O)O
Reminder that pEC50 means the negative base-10 logarithm of the concentration expressed in mol/L.

[ask] Would you mind telling me what pEC50 value was observed for H-Y[Aib]QGTFTSDFS[Orn][αMeL]LDKK([AEEA-AEEA-γGlu-C18 diacid])AQ[Aib]AFIEYLLE[Aib]GPSSGAPPPSGT-NH2 [Example 165] ?
[reply] 7.24

[ask] Would you mind telling me what pEC50 value was observed for H-Y[Aib]QGTFTSD[4Pal]SR[αMeL]LDKK([AEEA-γGlu-C18 diacid])AQ[Aib]AFIEYLIE[Aib]GESSGAPPPSGS-NH2 [Example 187] ?
[reply] 7.76

[ask] Would you mind telling me what pEC50 value was observed for H-Y[Aib]QGTFTSDFS[Orn][αMeL]LDKK([AEEA-γGlu-C18 diacid])AQ[Aib]AFIEYLLAGGPSSGAPPPEGS-NH2 [Example 93] ?
[reply] 7.52

[ask] Would you mind telling me what pEC50 value was observed for H-Y[Aib]QGT[αMePhe(2-F)]TSD[4Pal][αMeS]I[αMeL]LD[Orn]K([AEEA-γGlu-C18 diacid])AQ[αMe4Pal]EFI[dE][αMeY]LIEGGPSSGAPPPSGGGE-NH2 [Example 741] ?
[reply] 7.30

[ask] Would you mind telling me what pEC50 value was observed for H-Y[Aib]QGTFTSDYSI[αMeL]LDKQAAK([AEEA-AEEA-γGlu-C20 diacid])QFVEWLIA[Aib]GPSSGEPPPAEG-NH2 [Example 334] ?
[reply] 7.55

[ask] Would you mind telling me what pEC50 value was observed for H-Y[Aib]QGTFTSD[4Pal]SR[αMeL]LDKK([AEEA-γGlu-C18 diacid])AQ[αMe4Pal]AFIEYLIE[Aib]GESSGAPPPSGS-NH2 [Example 224] ?
[reply] 7.49
